Below, each of the molecules is paired with its reported EC50 value.
Study Target: human calcitonin-2 receptor (hCT2R) (Homo sapiens, UniProt P30988)
Construct: receptor cDNA cloned from the MCF7 cell line
Sequence (P30988 25-474): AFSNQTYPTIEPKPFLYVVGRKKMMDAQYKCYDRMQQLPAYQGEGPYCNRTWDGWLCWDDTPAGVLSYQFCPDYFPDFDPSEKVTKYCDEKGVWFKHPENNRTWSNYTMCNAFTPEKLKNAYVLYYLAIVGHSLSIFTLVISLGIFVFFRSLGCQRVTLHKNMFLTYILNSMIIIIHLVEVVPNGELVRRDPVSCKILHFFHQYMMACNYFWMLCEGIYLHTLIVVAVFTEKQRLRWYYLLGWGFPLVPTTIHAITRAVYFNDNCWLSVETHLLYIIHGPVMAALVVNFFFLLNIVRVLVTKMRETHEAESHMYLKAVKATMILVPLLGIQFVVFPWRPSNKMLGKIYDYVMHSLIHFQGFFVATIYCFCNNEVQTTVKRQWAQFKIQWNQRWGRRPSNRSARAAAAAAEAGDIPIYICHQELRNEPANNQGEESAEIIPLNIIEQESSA
Assay Overview: HCT2R CRE-luc reporter assay
Particulars: agonist activity; CHO-6CRE-luciferase cells co-transfected with hCT2R

Check out these entries, answers already filled in.
| Molecule | Recorded Result |
| --- | --- |
| CCOC(=O)c1c(CCc2ccc(C(F)(F)F)cc2)nc2c(c1C1CC1C(=O)NCc1ccccc1)C(=O)N1CCC[C@@H]21 (stereo partly shown) [Example 3] | 100 to 1000 nM |
| CCOC(=O)C1=C(Cc2ccc(F)cc2)Nc2c(c(=O)n3n2CCC3)C1c1ccc(C(=O)N[C@@H]2CCc3ccccc32)cc1 (stereo partly shown) [Example 60] | 100 to 1000 nM |

Lab book: EC50 of CCOC(=O)c1c(CCc2ccc(F)cc2)cc2c(c1-c1ccc(C(=O)O)cc1)C(=O)N1CCC[C@@H]21 [Example 49] noted as ≥ 1000 nM

// sample CCOC(=O)c1c(CCc2ccc(C(F)(F)F)cc2)nc2c(c1-c1ccc(C(=O)NCc3ccco3)cc1)C(=O)N1CSC[C@@H]21 [Example 34] , its EC50 was ≤ 10 nM
